Entry source: the supplement of paper PMC13380429

# Tested on: Vero E6 infected with SARS-CoV-2
# Assay Protocol: morphology score (similarity to uninfected cells); higher = more like uninfected cells
# Condition: 24 h

{"columns": ["Compound", "morphology score"],
 "data": [
  ["C=Cc1c(C)c2cc3nc(c(CC(=O)O)c4[n-]c(cc5nc(cc1[n-]2)C(C)=C5CC)c(C)c4C(=O)O)[C@@H](CCC(=O)O)[C@@H]3C.[Cu+2] [chlorophyllin-copper] (10 µM)", -0.0712],
  ["O=C(CC(c1ccccc1)c1ccccc1)N1CCN(C(c2ccccc2)c2ccccc2)CC1 (10 µM)", 0.0825],
  ["C=C[C@](C)(O)CC[C@@H]1[C@@]2(C)CCCC(C)(C)[C@@H]2CC[C@@]1(C)O [sclareol] (10 µM)", 0.142],
  ["O=C(O)CCNc1cc(N2CCc3ccccc3CC2)nc(-c2cccnc2)n1 (10 µM)", 0.165],
  ["Nc1ncnc2c1nc(Br)n2[C@@H]1O[C@@H]2COP(=O)(O)O[C@H]2[C@H]1O [8-bromo-cAMP] (10 µM)", 0.422],
  ["CN(C)CCNc1nc2cc(O)ccc2c2c1C(=O)c1ccccc1-2 (10 µM)", -0.234],
  ["COc1ccc(CNC(=O)Nc2ncc([N+](=O)[O-])s2)cc1 (10 µM)", -0.141],
  ["COCc1c(-c2ccc(NC(=O)Nc3cc(C(F)(F)F)ccc3F)c(F)c2)c2c(N)ncnn2c1CN1CCOCC1 (0.833333 µM)", 0.227],
  ["Cc1ccccc1C(=O)c1ccc(Nc2ccc(Br)cc2N)cc1Cl (10 µM)", -0.138],
  ["CC1(CN)Cc2ccccc2C1 (10 µM)", 0.0351],
  ["Clc1ccc2c(c1)N=C(N1CCNCC1)c1ccccc1N2 [desmethylclozapine] (10 µM)", 0.467],
  ["Cn1c(=O)c2c(ncn2CC(=O)Nc2ccc(-c3ccccc3)nn2)n(C)c1=O (10 µM)", 0.382],
  ["CC(C)N(CCC(=O)c1ccc2ccccc2c1)Cc1ccccc1 (10 µM)", 0.0866],
  ["O=C1CN(/N=C/c2ccc([N+](=O)[O-])o2)C(=O)N1 [nitrofurantoin] (10 µM)", 0.168],
  ["O=C(c1ccc(Cl)cc1)N(Cc1ccccc1)C1CCCCC1 (10 µM)", -0.00245],
  ["O=C(O)C(O)C(O)C(=O)O (stereo not drawn) [tartaric-acid] (10 µM)", -0.0312],
  ["COc1ccc2[nH]c([S+]([O-])Cc3ncc(C)c(OC)c3C)nc2c1 (stereo not drawn) [omeprazole-magnesium] (10 µM)", -0.138],
  ["Cc1ccc(C(=O)c2ccc(CC(=O)O)n2C)cc1 [tolmetin] (10 µM)", 0.0813]
]}

---

# System: Vero E6 infected with SARS-CoV-2
# Assay Protocol: inhibition of SARS-CoV-2 cytopathic effect; higher = more antiviral protection, active = above 15
# Condition: 8.33 nM; 48 h
inhibition of SARS-CoV-2 cytopathic effect reference
Measurement Label: inhibition of SARS-CoV-2 cytopathic effect (%)

{"columns": ["Molecule", "Target Desc", "Unit Abbreviation", "Endpoint Value"],
 "data": [
  ["CCn1cc(-c2ccnc3[nH]c(-c4cccc(CN(C)C)c4)cc23)c(-c2ccc(NC(=O)N(C)C)cc2)n1", "Vero E6 infected with SARS-CoV-2", "%", -2.56],
  ["Cc1c(N)nc([C@H](CC(N)=O)NC[C@H](N)C(N)=O)nc1C(=O)N[C@H](C(=O)N[C@H](C)[C@@H](O)[C@H](C)C(=O)N[C@H](C(=O)NCCc1nc(-c2nc(C(=O)NCCCNCCCCN)cs2)cs1)[C@@H](C)O)[C@@H](O[C@@H]1O[C@@H](CO)[C@@H](O)[C@H](O)[C@@H]1O[C@@H]1O[C@H](CO)[C@@H](O)[C@H](OC(N)=O)[C@@H]1O)c1cnc[nH]1", "Vero E6 infected with SARS-CoV-2", "%", -0.49],
  ["CCOC(=O)c1ccc(-c2ccc(OC(=O)N(C)Cc3cccc(-c4ccncc4)c3)cc2)cc1", "Vero E6 infected with SARS-CoV-2", "%", -0.08],
  ["NC(=O)N1C(=O)/C(=C(\\O)c2cccs2)c2cc(Cl)ccc21", "Vero E6 infected with SARS-CoV-2", "%", 1.1],
  ["CN(C)C(=O)Oc1ccc[n+](C)c1", "Vero E6 infected with SARS-CoV-2", "%", -0.26],
  ["NCCCCN=C(N)N", "Vero E6 infected with SARS-CoV-2", "%", 2.56],
  ["CC(C)c1cc2c(cc1S(=O)(=O)O)[C@@]1(C)CCC[C@@](C)(C(=O)O)[C@@H]1CC2", "Vero E6 infected with SARS-CoV-2", "%", 0],
  ["c1ccc(COCCCc2c[nH]cn2)cc1", "Vero E6 infected with SARS-CoV-2", "%", -1.11],
  ["Nc1nc(NC2CC2)c2ncn([C@H]3C=C[C@@H](CO)C3)c2n1", "Vero E6 infected with SARS-CoV-2", "%", -0.06],
  ["COc1cccc2c1C(=O)c1c(O)c3c(c(O)c1C2=O)C[C@@](O)(C(=O)CO)C[C@@H]3O[C@H]1C[C@H](N)[C@H](O[C@@H]2CCCCO2)[C@H](C)O1", "Vero E6 infected with SARS-CoV-2", "%", -0.32],
  ["COc1cc2nc(N3CCCN(C)CC3)nc(NC3CCN(Cc4ccccc4)CC3)c2cc1OC", "Vero E6 infected with SARS-CoV-2", "%", 0.41],
  ["CCCN(CCC)C(=O)Cc1c(-c2ccc(Cl)cc2)nc2ccc(Cl)cn12", "Vero E6 infected with SARS-CoV-2", "%", -6.64],
  ["O=C(NCCN1CCC2(CC1)C(=O)NCN2c1cccc(F)c1)c1ccc(F)c(F)c1", "Vero E6 infected with SARS-CoV-2", "%", 2.54],
  ["CCCCC#Cc1nc(NC)c2ncn([C@@H]3O[C@H](CO)[C@@H](O)[C@H]3O)c2n1", "Vero E6 infected with SARS-CoV-2", "%", -1.35],
  ["Oc1cc(O)c(Cl)cn1", "Vero E6 infected with SARS-CoV-2", "%", 0.32],
  ["Cc1ccccc1C(OCCN(C)C)c1ccccc1 (centres undefined)", "Vero E6 infected with SARS-CoV-2", "%", 0.5],
  ["N#CCC(=O)NN [cyacetacide]", "Vero E6 infected with SARS-CoV-2", "%", 1.89],
  ["CCOc1cc([C@@H](CS(C)(=O)=O)N2C(=O)c3cccc(NC(C)=O)c3C2=O)ccc1OC", "Vero E6 infected with SARS-CoV-2", "%", -0.67],
  ["CC(C)COC(=O)c1ccc(N)cc1", "Vero E6 infected with SARS-CoV-2", "%", -0.5],
  ["O=C(CCc1ccncc1)NNC(=O)N1Cc2ccccc2Oc2ccc(Cl)cc21", "Vero E6 infected with SARS-CoV-2", "%", 1.11],
  ["O=C(O)c1cc(C(=O)O)c(C(=O)N(Cc2cccc(Oc3ccccc3)c2)[C@H]2CCCc3ccccc32)cc1C(=O)O", "Vero E6 infected with SARS-CoV-2", "%", -0.1],
  ["Cc1cnc(NC(=O)Nc2cc(Br)c(C)cc2OC[C@@H]2CNCCO2)cn1", "Vero E6 infected with SARS-CoV-2", "%", 0.44],
  ["CC(=O)O[C@]1(C(C)=O)CC[C@H]2[C@@H]3C=C(C)C4=CC(=O)CC[C@]4(C)[C@H]3CC[C@@]21C [megestrol-acetate]", "Vero E6 infected with SARS-CoV-2", "%", -0.6],
  ["C=CCc1ccc(O)c(-c2ccc(O)c(CC=C)c2)c1", "Vero E6 infected with SARS-CoV-2", "%", -0.89],
  ["Clc1ccc(CSC(Cn2ccnc2)c2ccc(Cl)cc2Cl)cc1 (centres undefined)", "Vero E6 infected with SARS-CoV-2", "%", 2.09],
  ["COC(=O)C1=C(C)NC(C)=C(C(=O)OCCCN2CCC(c3ccccc3)(c3ccccc3)CC2)[C@@H]1c1cccc([N+](=O)[O-])c1", "Vero E6 infected with SARS-CoV-2", "%", 0.16],
  ["NC1CCN(c2cccc(Cl)n2)CC1", "Vero E6 infected with SARS-CoV-2", "%", -1.55],
  ["COc1ccc2[nH]c(I)c(CCNC(C)=O)c2c1", "Vero E6 infected with SARS-CoV-2", "%", 4.46],
  ["NC(=O)c1cn(Cc2c(F)cccc2F)nn1 [rufinamide]", "Vero E6 infected with SARS-CoV-2", "%", 1],
  ["COc1ccc(-n2nc(C(F)(F)F)cc2-c2ccc(Cl)cc2)cc1", "Vero E6 infected with SARS-CoV-2", "%", 3.29],
  ["O=C(O)c1c(Cl)c(Cl)c(Cl)c(Cl)c1-c1c2cc(I)c(=O)c(I)c-2oc2c(I)c(O)c(I)cc12", "Vero E6 infected with SARS-CoV-2", "%", -2.17],
  ["C=CCNc1nc(NCC=C)nc(N2CCN(C(c3ccc(F)cc3)c3ccc(F)cc3)CC2)n1", "Vero E6 infected with SARS-CoV-2", "%", -3.95],
  ["C[C@@H]1C/C=C/C=C/C=C/C=C/[C@H](O[C@@H]2O[C@H](C)[C@@H](O)[C@H](N)[C@@H]2O)C[C@@H]2O[C@](O)(C[C@@H](O)C[C@H]3O[C@@H]3/C=C/C(=O)O1)C[C@H](O)[C@H]2C(=O)O", "Vero E6 infected with SARS-CoV-2", "%", -0.49],
  ["Cc1cc(C)c(S(=O)(=O)Nc2cccc(C(F)(F)F)c2)c(C)c1", "Vero E6 infected with SARS-CoV-2", "%", 1.26]
]}
